# TEST TARGET: UniProt:Q96NX5
# Sequence (Q96NX5 whole entry, looked up): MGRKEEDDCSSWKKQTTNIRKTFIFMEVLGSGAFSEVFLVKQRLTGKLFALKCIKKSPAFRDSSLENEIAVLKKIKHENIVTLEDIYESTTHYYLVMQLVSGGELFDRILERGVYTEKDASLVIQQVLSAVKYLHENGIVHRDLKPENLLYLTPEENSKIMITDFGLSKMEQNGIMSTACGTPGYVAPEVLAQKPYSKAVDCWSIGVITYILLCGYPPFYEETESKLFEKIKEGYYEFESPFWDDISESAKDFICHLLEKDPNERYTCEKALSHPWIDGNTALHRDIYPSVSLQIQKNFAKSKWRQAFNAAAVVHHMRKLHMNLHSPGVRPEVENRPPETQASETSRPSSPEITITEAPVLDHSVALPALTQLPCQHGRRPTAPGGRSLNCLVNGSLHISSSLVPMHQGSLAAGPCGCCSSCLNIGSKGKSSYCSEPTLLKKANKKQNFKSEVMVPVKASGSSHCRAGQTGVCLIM
# EXPERIMENTAL DETAILS: radiometric filter-binding kinase assay, Kinase HotSpot
# STUDY CONDITIONS: compound 0.5 µM; ATP 10 µM
Give measured residual activity for each item. Keep answers brief.
Answers are plain numbers, in %.

O=C1Nc2ccccc2/C1=C1/Nc2ccccc2/C1=N\OCCC(O)CO (configuration not stated) :: 102
CC(=O)O/N=C1\C(=C2\C(=O)Nc3cc(Br)ccc32)Nc2ccccc21 :: 101
Nc1nccc(-c2c(-c3ccc(F)cc3)ncn2C2CCNCC2)n1 :: 99.3
O=C(Nc1cccc(Nc2cc(Nc3cccc(C(F)(F)F)c3)ncn2)c1)C1CC1 :: 96.9
COc1ccc(CNC(=O)Nc2ncc([N+](=O)[O-])s2)cc1 :: 99.6

# batch size: 2; output residual activity per entry
1. Cn1sc(=O)n(Cc2ccccc2)c1=O
2. O=C1Nc2ccccc2/C1=C1\Nc2ccccc2\C1=N/O

**Result**
1: 117; 2: 101

====

Give measured residual activity for each item. Keep answers brief.
# TEST TARGET: PDGFRB (human)
# EXPERIMENTAL DETAILS: radiometric filter-binding kinase assay, Kinase HotSpot
# STUDY CONDITIONS: compound 0.5 µM; ATP 10 µM
Numbers only, in %.

As a guide, the following entries are already answered.
O=C1Nc2ccccc2/C1=C1\Nc2ccccc2\C1=N/O :: 72.6
Cc1nc2cc3nc(-c4cccs4)cnc3cc2n1C :: 63.3
Cn1nc2c3c(cccc31)C(=O)c1ccccc1-2 :: 100

# batch size: 2; output residual activity per entry
1. O=C(Nc1cccc(Nc2cc(Nc3cccc(C(F)(F)F)c3)ncn2)c1)C1CC1
2. COc1cc2ncc(-c3ccccc3)nc2cc1OC

**Result**
[101, 87.5]

# batch size: 6; output residual activity per entry
1. O=C1Nc2ccccc2/C1=C1/Nc2ccccc2/C1=N\OCCC(O)CO (stereo unspecified)
2. O=C(O)/C=C/c1cc(Br)c(Br)c(Br)c1Br
3. Nc1nccc(-c2c(-c3ccc(F)cc3)ncn2C2CCNCC2)n1
4. Cn1sc(=O)n(Cc2ccccc2)c1=O
5. CC(=O)O/N=C1\C(=C2\C(=O)Nc3cc(Br)ccc32)Nc2ccccc21
6. Nc1nnc2[nH]c3ccccc3nc1-2

**Result**
1. 42.8
2. 96
3. 98.7
4. 87.3
5. 51.6
6. 98.1

====

# TEST TARGET: PAK2 (human) (UniProt Q13177)
# Sequence (Q13177 whole entry, looked up): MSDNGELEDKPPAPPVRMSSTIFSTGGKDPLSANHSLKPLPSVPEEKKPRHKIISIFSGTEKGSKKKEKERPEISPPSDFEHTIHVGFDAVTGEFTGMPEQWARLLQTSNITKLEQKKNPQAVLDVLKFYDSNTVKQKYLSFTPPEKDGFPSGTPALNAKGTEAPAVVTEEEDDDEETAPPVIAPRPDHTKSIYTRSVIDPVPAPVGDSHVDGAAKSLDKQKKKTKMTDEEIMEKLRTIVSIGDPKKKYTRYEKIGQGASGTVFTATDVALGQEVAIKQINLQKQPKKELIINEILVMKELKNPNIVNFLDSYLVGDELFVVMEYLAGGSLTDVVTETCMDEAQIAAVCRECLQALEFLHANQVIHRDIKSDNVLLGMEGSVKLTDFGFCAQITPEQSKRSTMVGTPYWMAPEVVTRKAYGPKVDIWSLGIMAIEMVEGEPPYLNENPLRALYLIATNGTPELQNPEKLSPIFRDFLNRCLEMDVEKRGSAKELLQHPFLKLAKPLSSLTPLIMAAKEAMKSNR
# EXPERIMENTAL DETAILS: radiometric filter-binding kinase assay, Kinase HotSpot
# STUDY CONDITIONS: compound 0.5 µM; ATP 10 µM
Give measured residual activity for each item. Keep answers brief.
Numbers only, in %.

As a guide, the following entries are already answered.
CC(=O)O/N=C1\C(=C2\C(=O)Nc3cc(Br)ccc32)Nc2ccccc21 :: 103
Oc1ccc(Nc2nc(-c3ccc(Cl)cc3)cs2)cc1 :: 87
COc1ccc(CNC(=O)Nc2ncc([N+](=O)[O-])s2)cc1 :: 102
O=C(Nc1cccc(Nc2cc(Nc3cccc(C(F)(F)F)c3)ncn2)c1)C1CC1 :: 103
Cn1sc(=O)n(Cc2ccccc2)c1=O :: 104
O=C1NC(=O)C(c2cn(CCCO)c3ncccc23)=C1c1cnccn1 :: 105
CC(C)[C@H](CO)Nc1nc(Nc2cc(N)cc(Cl)c2)c2ncn(C(C)C)c2n1 :: 95.5
Nc1nccc(-c2c(-c3ccc(F)cc3)ncn2C2CCNCC2)n1 :: 76.9

# batch size: 2; output residual activity per entry
1. O=C(O)/C=C/c1cc(Br)c(Br)c(Br)c1Br
2. COc1ccc(OC)c2c(=S)c3ccccc3[nH]c12

**Result**
1. 83.2
2. 104

# batch size: 2; output residual activity per entry
1. Nc1nnc2[nH]c3ccccc3nc1-2
2. O=C1Nc2ccccc2/C1=C1/Nc2ccccc2/C1=N\OCCC(O)CO (stereo not drawn)

**Result**
104
82.1

**Query** What value of residual activity has been recorded for this entry: Cn1cnc2cc3c(Nc4cccc(Br)c4)ncnc3cc21
**Result** 99.8

====

# TEST TARGET: CSNK1G3 (human)
# EXPERIMENTAL DETAILS: radiometric filter-binding kinase assay, Kinase HotSpot
# STUDY CONDITIONS: compound 0.5 µM; ATP 10 µM
Give measured residual activity for each item. Keep answers brief.

As a guide, the following entries are already answered.
COc1ccc(OC)c2c(=S)c3ccccc3[nH]c12 :: 86.2%
O=C1NC(=O)C(c2c[nH]c3ccccc23)=C1c1c[nH]c2ccccc12 :: 89.9%
O=C1Nc2ccccc2/C1=C1/Nc2ccccc2/C1=N\OCCC(O)CO (centres undefined) :: 90.7%

# batch size: 8; output residual activity per entry
1. CC(C)c1nn(-c2c(Cl)cccc2Cl)c2nc(Cc3ccc(OCCO)cc3)nc(O)c12
2. Nc1nnc2[nH]c3ccccc3nc1-2
3. CCN(CC)CCCCN1c2ccccc2Oc2ccc(Cl)cc21
4. CN([C@@H](Cc1ccc(OS(=O)(=O)c2cccc3cnccc23)cc1)C(=O)N1CCN(c2ccccc2)CC1)S(=O)(=O)c1cccc2cnccc12
5. O=C(CCCc1ccc(-c2ccccc2F)cc1)Nc1ccc(O)cc1
6. Cn1sc(=O)n(Cc2ccccc2)c1=O
7. COc1cc2ncc(-c3ccccc3)nc2cc1OC
8. O=C1NC(=O)/C(=C\c2ccc3nccnc3c2)S1

**Result**
95.7%
95.6%
78.3%
104%
104%
114%
104%
79.9%

# batch size: 2; output residual activity per entry
1. CCn1cnc2c(Nc3cccc(Cl)c3)nc(N[C@@H]3CCCC[C@@H]3N)nc21
2. Oc1ccc(Nc2nc(-c3ccc(Cl)cc3)cs2)cc1

**Result**
1. 45.9%
2. 103%

====

# TEST TARGET: RPS6KA4 KD2 (human)
# EXPERIMENTAL DETAILS: radiometric filter-binding kinase assay, Kinase HotSpot
# STUDY CONDITIONS: compound 0.5 µM; ATP 10 µM
Give measured residual activity for each item. Keep answers brief.
Answers are plain numbers, in %.

# batch size: 3; output residual activity per entry
1. COc1ccc(CNC(=O)Nc2ncc([N+](=O)[O-])s2)cc1
2. Oc1ccc(Nc2nc(-c3ccc(Cl)cc3)cs2)cc1
3. O=C1Nc2ccccc2/C1=C1/Nc2ccccc2/C1=N\OCCC(O)CO (stereo not drawn)

**Result**
[101, 91.5, 21.7]

====

Give measured residual activity for each item. Keep answers brief.
# TEST TARGET: UniProt O75914
# Sequence (O75914 whole entry, looked up): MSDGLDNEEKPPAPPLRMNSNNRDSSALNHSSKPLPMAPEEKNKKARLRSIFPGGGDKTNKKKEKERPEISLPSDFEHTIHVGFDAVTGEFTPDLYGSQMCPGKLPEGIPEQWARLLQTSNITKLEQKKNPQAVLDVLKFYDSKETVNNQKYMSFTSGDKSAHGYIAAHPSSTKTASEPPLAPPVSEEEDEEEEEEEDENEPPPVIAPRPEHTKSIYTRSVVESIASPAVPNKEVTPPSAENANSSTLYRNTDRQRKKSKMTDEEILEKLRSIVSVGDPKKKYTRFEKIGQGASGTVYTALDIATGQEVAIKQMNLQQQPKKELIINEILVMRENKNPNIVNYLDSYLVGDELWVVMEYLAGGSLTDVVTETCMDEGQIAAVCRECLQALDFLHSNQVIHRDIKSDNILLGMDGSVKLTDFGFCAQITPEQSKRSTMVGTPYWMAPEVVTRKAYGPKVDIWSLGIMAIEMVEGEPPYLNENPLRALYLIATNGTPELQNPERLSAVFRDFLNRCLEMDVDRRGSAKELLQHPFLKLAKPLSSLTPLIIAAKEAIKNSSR
# EXPERIMENTAL DETAILS: radiometric filter-binding kinase assay, Kinase HotSpot
# STUDY CONDITIONS: compound 0.5 µM; ATP 10 µM

O=C(CCCc1ccc(-c2ccccc2F)cc1)Nc1ccc(O)cc1 :: 104%
O=C1Nc2ccccc2/C1=C1/Nc2ccccc2/C1=N\OCCC(O)CO (centres undefined) :: 73.8%
COc1ccc(CNC(=O)Nc2ncc([N+](=O)[O-])s2)cc1 :: 94.6%

**Query** Form entry - test system: UniProt O75914; read-out: residual activity; molecule: Cn1nc2c3c(cccc31)C(=O)c1ccccc1-2
**Result** 101%

====

# TEST TARGET: TAOK1 (human) (UniProt Q7L7X3)
# Sequence (Q7L7X3 whole entry, looked up): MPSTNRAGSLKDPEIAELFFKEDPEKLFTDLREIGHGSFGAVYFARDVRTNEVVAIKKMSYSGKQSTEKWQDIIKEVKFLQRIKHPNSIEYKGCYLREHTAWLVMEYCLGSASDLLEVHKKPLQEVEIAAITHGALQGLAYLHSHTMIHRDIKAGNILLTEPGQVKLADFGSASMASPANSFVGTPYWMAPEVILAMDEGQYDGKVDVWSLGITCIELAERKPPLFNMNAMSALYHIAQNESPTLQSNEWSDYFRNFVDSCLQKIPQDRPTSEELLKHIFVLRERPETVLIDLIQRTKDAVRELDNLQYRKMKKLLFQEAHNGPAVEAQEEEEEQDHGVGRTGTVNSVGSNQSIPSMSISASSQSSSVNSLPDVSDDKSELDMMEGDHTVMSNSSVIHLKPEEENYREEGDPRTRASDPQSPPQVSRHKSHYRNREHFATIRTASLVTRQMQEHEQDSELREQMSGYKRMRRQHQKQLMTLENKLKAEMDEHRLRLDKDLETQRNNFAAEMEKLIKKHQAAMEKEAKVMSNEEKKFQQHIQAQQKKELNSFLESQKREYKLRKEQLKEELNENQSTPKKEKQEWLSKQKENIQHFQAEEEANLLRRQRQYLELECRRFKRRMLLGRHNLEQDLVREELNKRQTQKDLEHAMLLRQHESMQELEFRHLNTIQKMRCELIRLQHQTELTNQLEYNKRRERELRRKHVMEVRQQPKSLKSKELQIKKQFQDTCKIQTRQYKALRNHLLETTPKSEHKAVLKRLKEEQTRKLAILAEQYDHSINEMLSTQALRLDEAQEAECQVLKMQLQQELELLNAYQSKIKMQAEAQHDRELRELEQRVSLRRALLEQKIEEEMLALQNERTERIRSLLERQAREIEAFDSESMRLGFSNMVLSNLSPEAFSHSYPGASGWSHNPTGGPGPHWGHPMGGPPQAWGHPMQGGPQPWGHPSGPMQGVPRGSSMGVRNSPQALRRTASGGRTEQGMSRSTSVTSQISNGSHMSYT
# EXPERIMENTAL DETAILS: radiometric filter-binding kinase assay, Kinase HotSpot
# STUDY CONDITIONS: compound 0.5 µM; ATP 10 µM
Give measured residual activity for each item. Keep answers brief.
One number for each entry, in %.

As a guide, the following entries are already answered.
CN([C@@H](Cc1ccc(OS(=O)(=O)c2cccc3cnccc23)cc1)C(=O)N1CCN(c2ccccc2)CC1)S(=O)(=O)c1cccc2cnccc12 :: 98.7
Cn1cnc2cc3c(Nc4cccc(Br)c4)ncnc3cc21 :: 92.4
CC(=O)O/N=C1\C(=C2\C(=O)Nc3cc(Br)ccc32)Nc2ccccc21 :: 126

# batch size: 4; output residual activity per entry
1. O=C1NC(=O)C(c2cn(CCCO)c3ncccc23)=C1c1cnccn1
2. CC(C)[C@H](CO)Nc1nc(Nc2cc(N)cc(Cl)c2)c2ncn(C(C)C)c2n1
3. COc1ccc(OC)c2c(=S)c3ccccc3[nH]c12
4. O=C1Cc2c([nH]c3ccc(Br)cc23)-c2ccccc2N1

**Result**
1. 132
2. 79.9
3. 95.7
4. 99.4

====

# TEST TARGET: RAF1 (human)
# EXPERIMENTAL DETAILS: radiometric filter-binding kinase assay, Kinase HotSpot
# STUDY CONDITIONS: compound 0.5 µM; ATP 10 µM
METRIC NAME: residual activity (%)
Numbers only, in %.

As a guide, the following entries are already answered.
CN([C@@H](Cc1ccc(OS(=O)(=O)c2cccc3cnccc23)cc1)C(=O)N1CCN(c2ccccc2)CC1)S(=O)(=O)c1cccc2cnccc12 :: 96.9
Cn1cnc2cc3c(Nc4cccc(Br)c4)ncnc3cc21 :: 98.6
Nc1nnc2[nH]c3ccccc3nc1-2 :: 94.4

# batch size: 2; output residual activity per entry
1. O=C1Nc2ccccc2/C1=C1\Nc2ccccc2\C1=N/O
2. O=C1Nc2ccccc2/C1=C1/Nc2ccccc2/C1=N\OCCC(O)CO (stereo unspecified)

**Result**
1: 99.3; 2: 100

# batch size: 6; output residual activity per entry
1. O=C(CCCc1ccc(-c2ccccc2F)cc1)Nc1ccc(O)cc1
2. Cn1nc2c3c(cccc31)C(=O)c1ccccc1-2
3. Nc1nccc(-c2c(-c3ccc(F)cc3)ncn2C2CCNCC2)n1
4. COc1ccc(CNC(=O)Nc2ncc([N+](=O)[O-])s2)cc1
5. COc1cc2ncc(-c3ccccc3)nc2cc1OC
6. O=C1NC(=O)/C(=C\c2ccc3nccnc3c2)S1

**Result**
[102, 87, 90.9, 94, 106, 92.3]
